# TEST SUMMARY: binders of probe aFST on microarray, primary screen, stem cell growth factor project, biochemical, small-molecule microarray, fluorescence 635/667 (AID 1086);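 further: score merges 667 nm fluorescence with signal-to-noise of each printed compound spot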
# CONDITION LABEL: higher = more signal
PROPERTY NAME: composite z-score
Answers are plain numbers.

Before answering, review these 5 worked examples.
INSERT INTO measurements (compound, val) VALUES
  ('[N-]=[N+]=Nc1ccccc1C[C@]1(C(=O)NCCN2CCOCC2)N=C(c2ccc(OCCCO)cc2)O[C@H]1c1ccccc1', 0.892),
  ('O=C1C2C=CC(C(O)c3ccc(F)cc3)N(Nc3ccccc3)C2C(=O)N1c1ccccc1 (configuration not stated)', 0.593),
  ('[N-]=[N+]=NCc1ccccc1[C@@H]1OC(c2ccc(OCCCO)cc2)=N[C@]1(Cc1ccccc1N=[N+]=[N-])C(=O)NCc1ccccc1', 0.221),
  ('Cc1cc(C)c(C(O)C2C=CC3C(=O)N(C)C(=O)C3N2Nc2ccccc2)c(C)c1 (configuration not stated)', 2.01),
  ('CN1C(=O)C2C(C1=O)C1C=C(CCCO)C2C(c2cccs2)N1C (configuration not stated)', -0.225);

Would you mind listing composite z-score for each of the following compounds?
1. CC(=O)NCCCC[C@@H]1NC(=O)[C@H]2C[C@@H](C(=O)NCCCCCC[N+](C)(C)C)[C@@H](c3cccc(OCCO)c3)N2C1=O
2. Cc1ccc(S[C@]2(C(=O)NCc3ccccc3)CC(=O)N(Cc3ccccc3)[C@@H]2c2ccc(CO)cc2)cc1
3. COc1ccccc1CN1C(=O)c2ccccc2[C@@H](C(=O)NCCN2CCOCC2)[C@@H]1c1ccc(CO)cc1
4. [N-]=[N+]=NCc1ccccc1C[C@]1(C(=O)NCCN2CCOCC2)N=C(c2ccc(OCCCO)cc2)O[C@H]1c1ccccc1N=[N+]=[N-]
5. C=CCNC(=O)[C@@H]1[C@H]2C(=O)O[C@H](c3ccccc3)[C@H](c3ccccc3)N2[C@H](c2ccccc2OCCO)[C@@]12C(=O)Nc1ccc(C#CC3=CCCCC3)cc12

## Result
[-0.0568, -0.0886, -0.2, 1.25, 0.639]

====

# TEST SUMMARY: binders of probe aFST on microarray, primary screen, stem cell growth factor project, biochemical, small-molecule microarray, fluorescence 635/667 (AID 1086);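 further: score merges 667 nm fluorescence with signal-to-noise of each printed compound spot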
# CONDITION LABEL: higher = more signal
The threshold is inclusive: composite z-score of exactly 1 counts as Satisfied; values below receive Not satisfied.

Solved entries (count: 3):
INSERT INTO results (record_smiles, class_label) VALUES
  ('COCCOC(=O)N1C(=O)[C@@]2(c3cc(C#CCC(C(=O)OC)C(=O)OC)ccc31)[C@H](c1ccc(O)cc1)N1[C@H](c3ccccc3)[C@H](c3ccccc3)OC(=O)[C@H]1[C@@H]2C(N)=O', 'Not satisfied'),
  ('CCOC(=O)[C@H]1C/C=C/C[C@H](C(=O)OCC)C(=O)O[C@H]2[C@@H](OC)O[C@H](CO)[C@@H](OC(=O)Nc3ccc4c(c3)OCO4)[C@@H]2OC1=O', 'Not satisfied'),
  ('CC(C)NC(=O)[C@@H]1c2ccccc2C(=O)N(Cc2ccccc2Cl)[C@H]1c1ccc(CO)cc1', 'Not satisfied');

Field: next compound
## Task # bool: composite z-score of [N-]=[N+]=NCc1ccccc1C[C@@]1(C(=O)N2CCOCC2)N=C(c2ccc(OCCCO)cc2)O[C@@H]1c1ccccc1CN=[N+]=[N-] >= 1
## Result Satisfied
